# Assay Method Text: Blood-brain barrier penetrance, brain and serum levels after single IV injection
# Format: in vivo
# Study Conditions: CD-1, mouse, 60 min after single 25 mg/kg IV injection, read-out: brain-to-serum ratio
Please respond with reported Kp at 60 min for every item in the list.

Need Kp at 60 min for each of these compounds.
1. CCCS(=O)(=O)Nc1ccc(F)c(C(=O)c2c[nH]c3ncc(Cl)cc23)c1F [PLX4720, reference compound]
2. CCCS(=O)(=O)Nc1cc(Cl)cc(-c2nc(C(C)(C)C)sc2-c2ccnc(N)n2)c1F
3. COC(=O)N[C@@H](C)CNc1nccc(-c2cn(C(C)C)nc2-c2cc(Cl)cc(NS(C)(=O)=O)c2F)n1 [Encorafenib, reference compound]

0.0014 to 0.0069
0.286
0.0014 to 0.0069

Using the record for `CCCS(=O)(=O)Nc1cc(Cl)cc(-c2nc(C(C)(C)C)sc2-c2ccnc(NCCCCC(=O)O)n2)c1F` , report its Kp at 60 min.
0.0014 to 0.0069
